# Experimental System: ERβ (Homo sapiens, UniProt Q92731)
# Sequence (Q92731 whole entry): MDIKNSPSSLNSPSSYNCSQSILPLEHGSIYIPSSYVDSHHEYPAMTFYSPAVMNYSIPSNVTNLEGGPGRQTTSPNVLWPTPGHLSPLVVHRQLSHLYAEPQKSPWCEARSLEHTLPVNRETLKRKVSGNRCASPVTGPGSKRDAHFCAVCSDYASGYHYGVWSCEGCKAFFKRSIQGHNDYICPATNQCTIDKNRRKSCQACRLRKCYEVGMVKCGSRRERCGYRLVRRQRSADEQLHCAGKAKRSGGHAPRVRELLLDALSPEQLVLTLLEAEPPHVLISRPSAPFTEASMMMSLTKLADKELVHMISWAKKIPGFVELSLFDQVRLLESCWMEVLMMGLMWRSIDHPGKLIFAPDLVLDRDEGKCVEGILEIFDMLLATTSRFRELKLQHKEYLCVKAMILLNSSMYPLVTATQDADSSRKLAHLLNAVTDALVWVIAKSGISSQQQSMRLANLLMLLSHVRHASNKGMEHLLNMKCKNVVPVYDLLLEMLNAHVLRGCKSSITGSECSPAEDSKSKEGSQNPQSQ
# Method Summary: Cell based functional assay, ERE-luciferase in HEK 293 cells, agonist mode
# Experimental Setup: read-out: ERβ Agonist EC50, ERE-luciferase, 24 h
Readout: EC50 (nM)
Give a bare numeral; the unit nM is implied.

In plain terms, O=C(c1ccc(O)cc1)c1c(-c2ccc(O)cc2)sc2cc(O)ccc12 [compound 88074] has a documented EC50 of 232

---

# Experimental System: ERβ LBD (amino acids 257–502) (Homo sapiens)
# Method Summary: Differential HDX mass spectrometry of ERβLBD with and without ligand
# Assay type: binding
# Experimental Setup: ERβLBD:ligand 1:10; average of 1, 30, 60, 900, 4200 sec; negative = protection
Readout: Average difference in deuterium levels, LOOP 271-295 (%)
Give a bare numeral; the unit % is implied.

In plain terms, CC/C(=C(/CC)c1ccc(O)cc1)c1ccc(O)cc1 [DES, Diethylstilbestrol] has a documented Average difference in deuterium levels, LOOP 271-295 of −10

In plain terms, C[C@]12CC[C@@H]3c4ccc(O)cc4C[C@@H](CCCCCCCCC[S+]([O-])CCCC(F)(F)C(F)(F)F)[C@H]3[C@@H]1CC[C@@H]2O (some centres unmarked) [ICI, ICI 182780] has a documented Average difference in deuterium levels, LOOP 271-295 of −10

In plain terms, O=C(c1ccc(O)cc1)c1c(-c2ccc(O)cc2)sc2cc(O)ccc12 [compound 88074] has a documented Average difference in deuterium levels, LOOP 271-295 of −8

In plain terms, CC/C(=C(\c1ccc(O)cc1)c1ccc(OCCN(C)C)cc1)c1ccccc1 [4-hydroxy tamoxifen, 4-hydroxytamoxifen] has a documented Average difference in deuterium levels, LOOP 271-295 of −11

In plain terms, C[C@]12CC[C@@H]3c4ccc(O)cc4CC[C@H]3[C@@H]1CC[C@@H]2O [Estradiol, 17β-estradiol] has a documented Average difference in deuterium levels, LOOP 271-295 of −7

In plain terms, Oc1ccc2c(c1)CC[C@H](c1ccccc1)[C@@H]2c1ccc(OCCN2CCCC2)cc1 [Lasodoxifene, lasofoxifene] has a documented Average difference in deuterium levels, LOOP 271-295 of −11

In plain terms, O=C(c1ccc(OCCN2CCCCC2)cc1)c1c(-c2ccc(O)cc2)sc2cc(O)ccc12 [Raloxifene, raloxifene] has a documented Average difference in deuterium levels, LOOP 271-295 of −7

In plain terms, O=C(c1ccc(OCCN2CCCC2)cc1)c1c(-c2ccc(O)cc2)sc2cc(O)ccc12 [compound 117018] has a documented Average difference in deuterium levels, LOOP 271-295 of −7

---

# Experimental System: ERβ (Homo sapiens, UniProt Q92731)
# Method Summary: Cell based functional assay, ERE-luciferase in HEK 293 cells, antagonist mode
Readout: IC50 (nM)
Give a bare numeral; the unit nM is implied.

In plain terms, O=C(c1ccc(OCCN2CCCC2)cc1)c1c(-c2ccc(O)cc2)sc2cc(O)ccc12 has a documented IC50 of 204

---

# Experimental System: ERβ LBD (amino acids 257–502) (Homo sapiens, UniProt Q92731)
# Sequence (Q92731 257-502): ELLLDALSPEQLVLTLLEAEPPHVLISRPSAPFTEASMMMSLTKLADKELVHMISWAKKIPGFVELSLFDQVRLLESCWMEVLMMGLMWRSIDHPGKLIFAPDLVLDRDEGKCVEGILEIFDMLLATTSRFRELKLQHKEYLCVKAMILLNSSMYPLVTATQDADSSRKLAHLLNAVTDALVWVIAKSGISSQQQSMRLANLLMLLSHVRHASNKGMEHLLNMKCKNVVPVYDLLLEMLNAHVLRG
# Method Summary: Differential HDX mass spectrometry of ERβLBD with and without ligand
# Type: binding
# Experimental Setup: ERβLBD:ligand 1:10; average of 1, 30, 60, 900, 4200 sec; negative = protection
Readout: Average difference in deuterium levels, LOOP 271-294 (%)
Give a bare numeral; the unit % is implied.

In plain terms, CC/C(=C(/CC)c1ccc(O)cc1)c1ccc(O)cc1 has a documented Average difference in deuterium levels, LOOP 271-294 of −10

In plain terms, C[C@]12CC[C@@H]3c4ccc(O)cc4CC[C@H]3[C@@H]1CC[C@@H]2O has a documented Average difference in deuterium levels, LOOP 271-294 of −6

In plain terms, CC/C(=C(\c1ccc(O)cc1)c1ccc(OCCN(C)C)cc1)c1ccccc1 [4-hydroxy tamoxifen, 4-hydroxytamoxifen] has a documented Average difference in deuterium levels, LOOP 271-294 of −8

In plain terms, O=C(c1ccc(O)cc1)c1c(-c2ccc(O)cc2)sc2cc(O)ccc12 has a documented Average difference in deuterium levels, LOOP 271-294 of −7

In plain terms, O=C(c1ccc(OCCN2CCCCC2)cc1)c1c(-c2ccc(O)cc2)sc2cc(O)ccc12 has a documented Average difference in deuterium levels, LOOP 271-294 of −7

In plain terms, O=C(c1ccc(OCCN2CCCC2)cc1)c1c(-c2ccc(O)cc2)sc2cc(O)ccc12 has a documented Average difference in deuterium levels, LOOP 271-294 of −7

In plain terms, Oc1ccc2c(c1)CC[C@H](c1ccccc1)[C@@H]2c1ccc(OCCN2CCCC2)cc1 has a documented Average difference in deuterium levels, LOOP 271-294 of −11

In plain terms, C[C@]12CC[C@@H]3c4ccc(O)cc4C[C@@H](CCCCCCCCC[S+]([O-])CCCC(F)(F)C(F)(F)F)[C@H]3[C@@H]1CC[C@@H]2O (some centres unmarked) has a documented Average difference in deuterium levels, LOOP 271-294 of −9
